Origin of measurements: PubChem BioAssay

experiment: JHH-DIPG-1 glioma cell viability, MIPE5.0 library, CellTiter-Glo luminescence, qHTS (AID 1347067); conditions: JHH-DIPG-1 glioma viability, CellTiter-Glo ATP luminescence;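 further: cells exposed to compound for 48 hours before readout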
Inconclusive results are not listed. Activity calls are given as the source filed them. Cut-off not given; nearly all actives show AC50 up to about 26 µM.
Please state which outcome applies, choosing from active, inactive

Input line: So what was the verdict on CCCNC(=O)Nc1ccc(Oc2ncnc3cc(OC)c(OC)cc23)cc1Cl in this test?
Output line: active

Input line: So what was the verdict on CO[C@H]1/C=C/O[C@@]2(C)Oc3c(C)c(O)c4c(O)c(c5c(nc6cc(C)ccn65)c4c3C2=O)NC(=O)/C(C)=C\C=C\[C@H](C)[C@H](O)[C@@H](C)[C@@H](O)[C@@H](C)[C@H](OC(C)=O)[C@@H]1C in this test?
Output line: active

Input line: So what was the verdict on COc1ccc(-c2cc3c(C)nc(N)nc3n(C3CCC(OCCO)CC3)c2=O)cn1 (configuration not stated) in this test?
Output line: active

Input line: So what was the verdict on C/C=C/C/C=C/CCC(=O)[C@H]1O[C@H]1C(N)=O in this test?
Output line: active

Input line: So what was the verdict on O=C(O)CC(C(=O)O)n1c(O)c(C2=c3cc(Br)ccc3=NC2=O)sc1=S (configuration not stated) in this test?
Output line: inactive

Input line: So what was the verdict on CC(C)n1nc(-c2ccc3oc(N)nc3c2)c2c(N)ncnc21 in this test?
Output line: active

Input line: So what was the verdict on [2H]C([2H])([2H])C(O)([C@@H](C)/C=C/[C@@H](C)[C@H]1CC[C@H]2/C(=C/C=C3C[C@@H](O)C[C@H](O)C3)CCC[C@]12C)C([2H])([2H])[2H] in this test?
Output line: inactive

* * *

assay: JHH-DIPG-1 glioma cell viability, MIPE5.0 library, CellTiter-Glo luminescence, qHTS (AID 1347067); settings: JHH-DIPG-1 glioma viability, CellTiter-Glo ATP luminescence;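 further: cells exposed to compound for 48 hours before readout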
Records with an inconclusive call do not appear. Activity calls are given as the source filed them. The limit is not given here; nearly all actives have AC50 up to about 26 µM.
Please state which outcome applies, choosing from True = active, False = inactive

Input line: So what was the verdict on CN[C@@H](C)C(=O)N[C@H]1CN(C(=O)CC(C)C)CC[C@H]2CC[C@@H](C(=O)NC(c3ccccc3)c3ccccc3)N2C1=O in this test?
Output line: False

Input line: So what was the verdict on O=C(O)C1=CO[C@@H](O[C@@H]2O[C@H](CO)[C@@H](O)[C@H](O)[C@H]2O)[C@@H]2C(CO)=CC[C@H]12 in this test?
Output line: False

Input line: So what was the verdict on Cc1cc(-c2cc(OC(=O)c3ccccc3)ccc2Cl)cc2nnc(Nc3ccc(OCCN4CCCC4)cc3)nc12 in this test?
Output line: True

* * *

experiment: viability loss with induced miR-34 in A549 – imaging, A549 dox-inducible miR-34, nuclei and caspase counts, primary screen (AID 1347080); conditions: A549 miR-34 inducible, Hoechst nuclei count, 48 h; measured here: total cells without miR-34 induction
readout name: cell count
Simply state the number, no unit and no words.

Input line: Note cell count for the compound shown: O=C(NOCC(O)CO)c1cc(Br)c(F)c(F)c1Nc1ccc(I)cc1F (stereo not given)
Output line: 3720

Input line: Note cell count for the compound shown: O=C(OC[C@@H]1O[C@H]1c1ccccc1)Oc1ccc([N+](=O)[O-])cc1
Output line: 6200

Input line: Note cell count for the compound shown: CN
Output line: 4430

Input line: Note cell count for the compound shown: CCCCC[C@H](O)/C=C/[C@@H]1[C@H]2C/C=C\CCCC(=O)O[C@H]2C[C@H]1O
Output line: 5990

Input line: Note cell count for the compound shown: COC(=O)[C@H](Cc1ccc([N+](=O)[O-])cc1)NC(=O)c1cccc2ccccc12
Output line: 10000

Input line: Note cell count for the compound shown: CC(Sc1nc2ccccc2[nH]1)C(=O)N/N=C/c1cc(Br)ccc1O (stereo not given)
Output line: 6010

Input line: Note cell count for the compound shown: C=CC(=O)Nc1cc(Nc2nccc(-c3cn(C)c4ccccc34)n2)c(OC)cc1N(C)CCN(C)C
Output line: 2830

Input line: Note cell count for the compound shown: CC#CCC(C)[C@@H](O)/C=C/[C@@H]1[C@H]2C/C(=C\CCCC(=O)O)C[C@H]2C[C@H]1O (stereo not given in full)
Output line: 5500

Input line: Note cell count for the compound shown: CCCCCCC[C@H](O)/C=C/[C@H]1[C@H](O)CC(=O)[C@@H]1C/C=C\CCCC(=O)O
Output line: 6200

Input line: Note cell count for the compound shown: O=C1C[C@@H]2[C@@H](CC[C@@H](O)CCc3ccccc3)[C@H](O)C[C@@H]2O1
Output line: 6050

Input line: Note cell count for the compound shown: CCCCC[C@H](O)/C=C/[C@H]1C2COC(C2)[C@@H]1C/C=C/CCCC(=O)O (stereo not given in full)
Output line: 6410

Input line: Note cell count for the compound shown: CCCC[P+](CCCC)(CCCC)Cc1ccc(NC(=O)[C@@H](Cc2ccc3ccccc3c2)NC(=NC2CCCCC2)NC2CCCCC2)cc1
Output line: 2900

Input line: Note cell count for the compound shown: O=C1N[C@@H]2[C@@H](O)[C@@H](O)[C@H](O)[C@@H](CO)N2C1=O
Output line: 5410

Input line: Note cell count for the compound shown: O=C(Nc1ccccc1)C12CC1/C(=N\O)c1ccccc1O2 (stereo not given)
Output line: 7700

Input line: Note cell count for the compound shown: CC(=O)N(O)[C@@H]1c2cc(C#N)ccc2OC(C)(C)[C@H]1O
Output line: 9980

Input line: Note cell count for the compound shown: CC(C)n1nc(-c2cc3cc(O)ccc3[nH]2)c2c(N)ncnc21
Output line: 1820

Input line: Note cell count for the compound shown: CCCCC[C@H](O)/C=C/[C@H]1C2COC(C2)[C@@H]1C/C=C\CCCC(=O)O (stereo not given in full)
Output line: 5950

Input line: Note cell count for the compound shown: COc1ccc(NS(=O)(=O)c2ccc(I)cc2)cc1N1CCN(C)CC1
Output line: 6870

Input line: Note cell count for the compound shown: O=C(CCCCCc1ccccc1)c1nc2ncccc2o1
Output line: 5190

Input line: Note cell count for the compound shown: CCCCC(C)(C)[C@H](O)/C=C/[C@H]1[C@H](O)CC(=O)[C@@H]1CCCCCCC(=O)O
Output line: 6020

Input line: Note cell count for the compound shown: C=CC(=O)c1ccc2ccccc2c1
Output line: 9410

Input line: Note cell count for the compound shown: Nc1nc(N)c2nc(-c3cccc(O)c3)c(-c3cccc(O)c3)nc2n1
Output line: 7850

Input line: Note cell count for the compound shown: CCCCCC(=O)/C=C/[C@H]1[C@H](O)CC(=O)[C@@H]1CCCCCCC(=O)O
Output line: 5690

Input line: Note cell count for the compound shown: CCCCC/C=C\C/C=C\CCCCCCCC(=O)O[C@H](COC(=O)CCCCCCCCCCCCCCC)COP(=O)(O)OCCN
Output line: 5760

Input line: Note cell count for the compound shown: c1ccc(CN2CCC3(CCc4ccccc43)CC2)cc1
Output line: 9280
